Tested on: NB4
testDescription: area under dose-response curve (cell viability) (AUC (arbitrary, % viability x log concentration)); higher = less sensitive (more viable)
conditionContext: 4 days
Where a name gives a salt, the structure may show the parent alone.
Use Met when the recorded area under dose-response curve is no lower than 600; use Not met when it is lower.

Nc1ncnc2c1c(I)cn2[C@@H]1O[C@H](CO)[C@@H](O)[C@H]1O | Not met

Qu. Answer whether area under dose-response curve of CO[C@H]1C[C@@H]2CC[C@@H](C)[C@@](O)(O2)C(=O)C(=O)N2CCCC[C@H]2C(=O)O[C@H]([C@H](C)C[C@@H]2CC[C@@H](OCCO)[C@H](OC)C2)CC(=O)[C@H](C)/C=C(\C)[C@@H](O)[C@@H](OC)C(=O)[C@H](C)C[C@H](C)/C=C/C=C/C=C/1C is greater than or equal to 600.
Ans. Not met

Qu. Answer whether area under dose-response curve of Cc1ccc(Nc2nccc(N(C)c3ccc4c(C)n(C)nc4c3)n2)cc1S(N)(=O)=O is greater than or equal to 600.
Ans. Met

Qu. Answer whether area under dose-response curve of Nc1ccn([C@@H]2O[C@H](CO)[C@@H](O)C2(F)F)c(=O)n1 [Gemcitabine HCl] is greater than or equal to 600.
Ans. Not met

Qu. Answer whether area under dose-response curve of O=C(NC[C@H](O)CO)c1ccncc1Nc1ccc(I)cc1F is greater than or equal to 600.
Ans. Not met
